Assay notes: NCI Yeast Anticancer Drug Screen. Data for the mec2-1 strain (AID 157)
Setup conditions: S. cerevisiae mec2-1 strain, at 50.0 µM, hits give high values
Compounds without any hit were thinned out: in the full panel of roughly 79,000, 15% have a hit. Where a SMILES comes first, the peptide text is derived from it. The star is where a group is joined. Cbz = O=C(OCc1ccccc1)*; Bn = c1ccc(C*)cc1
# Lookup of reported growth inhibition keyed by entry

{"Compound": "O=c1[nH]nc(SCc2ccccc2)c2nncn12", "growth inhibition [%]": 3.1}
{"Compound": "CCOc1ccc(C(=O)OC)cc1", "growth inhibition [%]": -3.45}
{"Compound": "CC(C)C(NC(=O)C(CSCc1ccccc1)NC(=O)OCc1ccccc1)C(N)=O (stereo not drawn) (Cbz-Cys(Bn)-Val-NH2; configuration not given here)", "growth inhibition [%]": 16.1}
{"Compound": "CCCCCC(=O)N1CCCCC1CC (stereo not drawn)", "growth inhibition [%]": 7.15}
{"Compound": "CC(C)CCC(C)C1CCC2C3CC/C(=N/Nc4ccc([N+](=O)[O-])cc4[N+](=O)[O-])C(C)(CCC(=O)O)C3CCC12C (stereo not drawn)", "growth inhibition [%]": -12.2}
{"Compound": "c1ccc(CCc2cccnc2)nc1", "growth inhibition [%]": -4.5}
{"Compound": "O=C1NC(=S)S/C1=C/C=C/c1ccccc1[N+](=O)[O-]", "growth inhibition [%]": 0.85}
{"Compound": "CC12C(=O)OC3CCC1CC32 (stereo not drawn)", "growth inhibition [%]": 7.1}
{"Compound": "NC(=S)N/N=C1\\CCCCC1C(O)(C(F)(F)Cl)C(F)(F)Cl (stereo not drawn)", "growth inhibition [%]": -33.8}
{"Compound": "COc1ccc(C(Br)C(Br)C(=O)C(C)(C)C)cc1 (stereo not drawn)", "growth inhibition [%]": 8.75}
{"Compound": "CC1=CCS(=O)(=O)C1", "growth inhibition [%]": 1.55}
{"Compound": "CC(=O)O[C@]12CCCCCC1C1(O)C(O)CCCC[C@H]12 (stereo partly drawn)", "growth inhibition [%]": -23.6}
{"Compound": "CC12CC(=O)C3C(CCC4=CC(=O)CCC43C)C1CC=C2CC(=O)O (stereo not drawn)", "growth inhibition [%]": 1.15}
{"Compound": "CCCCCCCCC1C(CCCCCCCC(=O)OC)C2(Cl)C(Cl)=C(Cl)C1(Cl)C2(Cl)Cl (stereo not drawn)", "growth inhibition [%]": -11.5}
{"Compound": "O=C(Cc1ccccn1)c1cccnc1", "growth inhibition [%]": -9.7}
{"Compound": "Nc1nc2ccc([N+](=O)[O-])cc2s1", "growth inhibition [%]": -6.45}
{"Compound": "CC1(C)CC(=O)C2(C)C(C1O)C2C1C2C(O)C(C)(C)CC(=O)C21C (stereo not drawn)", "growth inhibition [%]": 3.25}
{"Compound": "COc1ccc(C2S/C(=C\\c3cccc(O)c3)C(=O)N2NC(=O)Cc2ccccc2)cc1 (stereo not drawn)", "growth inhibition [%]": -34.5}
{"Compound": "CC(/C=N\\NC(=S)SCc1ccccc1)=N/N=C(N)N", "growth inhibition [%]": 50.2}
{"Compound": "C/C(CCl)=N/NC(N)=S", "growth inhibition [%]": -2.5}
{"Compound": "Cn1c(=O)c(Br)c(C=O)n(CCO[N+](=O)[O-])c1=O", "growth inhibition [%]": 32}
{"Compound": "O=C(CC1(O)CCCCC1)Nc1ccccc1", "growth inhibition [%]": -8.45}
{"Compound": "CS(=O)(=O)OCCn1cnc2nc(NC(=O)c3ccccc3)[nH]c(=O)c21", "growth inhibition [%]": -20.6}
{"Compound": "CC1OC1C(=O)C1(O)C(C)C(O)C23OC2(C(O)c2c(O)cccc2C3=O)C1O (stereo not drawn)", "growth inhibition [%]": -21.8}
{"Compound": "c1ccc(CSc2nc3ccccc3nc2-c2cccs2)cc1", "growth inhibition [%]": -51.9}
{"Compound": "CC(=O)n1c(N)nc2ccccc21", "growth inhibition [%]": -2.85}
{"Compound": "O=C(OCc1ccco1)c1ccc([N+](=O)[O-])cc1", "growth inhibition [%]": -7.3}
{"Compound": "CCOC(=O)C(=Cn1c(=S)[nH]c2cc(C)ccc21)C(=O)OCC", "growth inhibition [%]": -39.1}

Hey, just so you know, these numbers are from PubChem BioAssay (NCI).
